For each entry below, report its SPOT peptide array binding signal intensity value.
- EXPERIMENTAL_TARGET: AgHof1
- TEST_SUMMARY: SPOT peptide array binding signal intensity (averaged, normalized) (arbitrary units (background-subtracted, floor 0; scale differs between SH3 domains)); higher = stronger binding of the SH3 domain to the peptide
Give bare numbers.

{"BINDER": "SGVRLPAPPPPPRRG", "RESULT": 472}
{"BINDER": "TPRLSLPRLPNKHHW", "RESULT": 685}

// each binder listed below needs its SPOT peptide array binding signal intensity
1. RSKRLFPVRPMATAH
2. RRASLFPRDPKRLRP
3. AAHKTKPSIPPKKVE
4. KRKRFNLLLPKPYLT
5. GKKVRPLLVLLLSRA
6. RRLRDKYKLPIVDAD
7. LYEAMPPTLPHRDWK

3.5
22.2
20
49.5
0.5
17
0.5

// each binder listed below needs its SPOT peptide array binding signal intensity
1. RRRRRPHRIERPLSN
2. DLPLPDLPPEPPTEL
3. RRRDFGAPANKRPRR
4. NSVPIMPTLPPRPYI
5. VTHRLRISIPGITGR
6. AVPPPPPPPPLPESL

[28.5, 54.5, 57.5, 118, 20.8, 182]

// each binder listed below needs its SPOT peptide array binding signal intensity
1. QQNRPLPQLPNRNNR
2. GSKSGPPPRPKKPST
3. GERSRPLVISILSSA

938
39.2
14.8

// each binder listed below needs its SPOT peptide array binding signal intensity
1. NLDRSKISLPDFDDE
2. QTMRQAPKRPDADVA
3. NPNRRAPRRPLSTQH
4. PSRRAPLQLPQLVNK
5. LPPPPPPPPPPPLPQ
6. LTRRFPFLFPFDTRM

1. 11.5
2. 9
3. 37.8
4. 36.5
5. 128
6. 43.5
